Just for reference, patent US20110112100A1 is where these values come from.

# Test system: 1a-H77 replicon cells
# Test Name: HCV 1a replicon inhibitory activity (Renilla luciferase)
# Assay type: cell-based, hepatitis C virus
# Stated Conditions: Hepatitis C virus, 48 h, read-out: IC50 value (95% Confidence Intervals) pM Replicon 1A assay
Where a name gives a salt, the structure may show the parent alone.
Experimental Endpoint: IC50

# compound CC[C@H](NC(=O)OC)C(=O)N1CCC[C@H]1c1ncc(-c2ccc3nc(-c4ccc(-c5c[nH]c([C@@H]6CCCN6C(=O)[C@@H](NC(=O)OC)C(C)C)n5)cc4)cnc3c2)[nH]1 [Example 52, trifluoroacetic acid salt] ; its IC50 = 22.1 pM

# compound COC(=O)N[C@H](C(=O)N1CCC[C@H]1c1nc(-c2ccc(-c3cnc4cc(-c5cnc([C@@H]6CCCN6C(=O)[C@@H](NC(=O)OC)[C@@H](C)O)[nH]5)ccc4n3)cc2)c[nH]1)C(C)C [Example 60, trifluoroacetic acid salt] ; its IC50 = 22.3 pM

# compound COC(=O)N[C@H](C(=O)N1CCC[C@H]1c1nc(-c2ccc(-c3cnc4cc(-c5cnc([C@@H]6CCCN6C(=O)[C@@H](Cc6c[nH]c7ccccc67)NC(=O)OC)[nH]5)ccc4n3)cc2)c[nH]1)C(C)C [Example 82, trifluoroacetic acid salt] ; its IC50 = 490 pM

# compound COC(=O)NCC(=O)N1CCC[C@H]1c1ncc(-c2ccc3nc(-c4ccc(-c5c[nH]c([C@@H]6CCCN6C(=O)[C@@H](NC(=O)OC)C(C)C)n5)cc4)cnc3c2)[nH]1 [Example 65, trifluoroacetic acid salt] ; its IC50 = 700 pM

# compound COC(=O)N[C@@H](Cc1ccccc1)C(=O)N1CCC[C@H]1c1ncc(-c2ccc3nc(-c4ccc(-c5c[nH]c([C@@H]6CCCN6C(=O)[C@@H](NC(=O)OC)C(C)C)n5)cc4)cnc3c2)[nH]1 [Example 49, trifluoroacetic acid salt] ; its IC50 = 73 pM
